Target: ROCK2 (Homo sapiens)
Sequence (O75116 whole entry, species assumed): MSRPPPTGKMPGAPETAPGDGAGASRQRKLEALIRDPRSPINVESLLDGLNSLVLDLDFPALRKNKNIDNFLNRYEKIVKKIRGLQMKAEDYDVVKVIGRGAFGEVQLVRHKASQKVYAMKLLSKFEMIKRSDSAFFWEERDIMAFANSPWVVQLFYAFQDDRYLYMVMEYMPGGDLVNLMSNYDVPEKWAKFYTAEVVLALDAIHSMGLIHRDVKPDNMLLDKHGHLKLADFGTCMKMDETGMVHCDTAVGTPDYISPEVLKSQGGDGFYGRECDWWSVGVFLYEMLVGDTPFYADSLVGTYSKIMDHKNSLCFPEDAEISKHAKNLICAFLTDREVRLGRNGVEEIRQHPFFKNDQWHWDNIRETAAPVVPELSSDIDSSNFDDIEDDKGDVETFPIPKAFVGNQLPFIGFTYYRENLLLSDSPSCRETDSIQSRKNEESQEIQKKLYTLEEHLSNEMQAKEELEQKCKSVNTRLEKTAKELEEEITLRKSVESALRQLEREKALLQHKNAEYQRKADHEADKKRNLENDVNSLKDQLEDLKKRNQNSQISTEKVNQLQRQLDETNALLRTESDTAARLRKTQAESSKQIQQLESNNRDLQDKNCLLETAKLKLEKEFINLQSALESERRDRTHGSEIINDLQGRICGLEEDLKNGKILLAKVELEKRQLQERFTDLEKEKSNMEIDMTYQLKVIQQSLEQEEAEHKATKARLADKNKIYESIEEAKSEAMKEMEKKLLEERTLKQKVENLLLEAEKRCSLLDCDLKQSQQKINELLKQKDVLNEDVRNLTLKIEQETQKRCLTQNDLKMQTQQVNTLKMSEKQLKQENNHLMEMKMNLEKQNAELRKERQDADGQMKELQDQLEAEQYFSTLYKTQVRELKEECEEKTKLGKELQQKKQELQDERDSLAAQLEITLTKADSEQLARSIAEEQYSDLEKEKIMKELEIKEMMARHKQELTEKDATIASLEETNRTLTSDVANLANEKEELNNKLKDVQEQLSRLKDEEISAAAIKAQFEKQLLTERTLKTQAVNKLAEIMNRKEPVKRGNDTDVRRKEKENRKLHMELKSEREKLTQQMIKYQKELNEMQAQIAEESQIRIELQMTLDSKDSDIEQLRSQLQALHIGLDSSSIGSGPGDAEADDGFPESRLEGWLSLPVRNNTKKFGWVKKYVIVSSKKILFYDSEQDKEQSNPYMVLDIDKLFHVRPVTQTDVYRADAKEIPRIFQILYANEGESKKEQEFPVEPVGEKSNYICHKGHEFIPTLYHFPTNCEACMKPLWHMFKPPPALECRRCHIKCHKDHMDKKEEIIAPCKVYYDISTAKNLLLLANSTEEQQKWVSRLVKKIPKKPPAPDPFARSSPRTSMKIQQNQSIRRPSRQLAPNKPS
Experiment: ROCK Kinase Assay (Kinase-Glo luminescent)
Assay type: biochemical
Conditions: IC50 converted to Ki by Cheng-Prusoff; ATP 5 μM, ROCK2 1 nM, 180 min; read-out: ROCK2 Ki
pKi: −log10 of the molar value.
I would appreciate it if you labelled entries 1 when pKi is 9 or higher, otherwise 0.

Previously resolved entries follow.
{"columns": ["compound", "category"],
 "data": [
  ["Cc1cccc(C(CN)C(=O)Nc2ccc3cnccc3c2)c1 (stereo not drawn) [Compound 14]", 0],
  ["Cc1ccc(C(CN)C(=O)Nc2ccc3cnccc3c2)cc1 (stereo not drawn) [Compound 15]", 1]
]}

IN: Is it the case that NC[C@@H](C(=O)Nc1ccc2cnccc2c1)c1ccccc1 [3 (S)] has pKi reaching or exceeding 9?
OUT: 1

IN: API: above_or_equal(metric=pKi, cutoff=9) for item NC[C@H](C(=O)Nc1ccc2cnccc2c1)c1ccccc1 [4 (R)]
OUT: 0

IN: pKi >= 9 for NCC(C(=O)Nc1ccc2cnccc2c1)c1cccc(C(F)(F)F)c1 (stereo not drawn) [Compound 21] ?
OUT: 0

IN: Hi, just wondering whether NCC(C(=O)Nc1ccc2c(O)nccc2c1)c1ccccc1 (stereo not drawn) [Compound 5] shows pKi of 9 or higher.
OUT: 0
